Measured Kd accompanies every entry in the list below.
# TEST_TARGET: T1, β-catenin (UniProt P35222 134-665, limits assumed, biotinylated in the SPR and plate assays)
# T1 construct: also called beta catenin; biotinylated β-catenin
# T1 sequence (looked up): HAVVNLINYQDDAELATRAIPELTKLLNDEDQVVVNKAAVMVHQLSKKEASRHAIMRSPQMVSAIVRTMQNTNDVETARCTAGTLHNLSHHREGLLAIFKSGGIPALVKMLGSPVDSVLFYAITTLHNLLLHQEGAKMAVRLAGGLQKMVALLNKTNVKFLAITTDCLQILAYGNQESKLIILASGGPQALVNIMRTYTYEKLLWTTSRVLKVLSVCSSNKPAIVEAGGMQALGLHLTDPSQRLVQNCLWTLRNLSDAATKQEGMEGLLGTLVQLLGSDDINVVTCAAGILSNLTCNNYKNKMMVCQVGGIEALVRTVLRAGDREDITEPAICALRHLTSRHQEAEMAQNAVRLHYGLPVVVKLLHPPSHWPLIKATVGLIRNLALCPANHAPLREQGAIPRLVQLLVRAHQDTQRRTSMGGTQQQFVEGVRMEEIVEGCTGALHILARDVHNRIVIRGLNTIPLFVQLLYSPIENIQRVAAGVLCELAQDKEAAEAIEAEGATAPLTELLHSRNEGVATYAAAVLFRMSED
# PROTOCOL_TEXT: competitive FP
Bridges are numbered along the chain shown (N, C = ends). [ ]: non-standard residue; d: D form. The star is where a group is joined. Chg = N[C@H](C(=O)O)C1CCCCC1; Lauroyl = CCCCCCCCCCCC(=O)*; NMeA = CN[C@@H](C)C(=O)O

BINDER | OBSERVED
Lauroyl-W[NMeA]QSILDKH[Chg]QDVW-NH2 (lactam 8-12; not fully specified; printed as Lauroyl-NH-W-NMeA-QSILDK*H-Chg-QD*VW-NH2) [SEQ ID NO: 461] | ≤ 400 nM
Lauroyl-W[NMeA]QSILDEH[Chg]QKVW-NH2 (lactam 8-12; not fully specified; printed as Lauroyl-NH-W-NMeA-QSILDE*H-Chg-QK*VW-NH2) [SEQ ID NO: 467] | ≤ 400 nM

// moving on: another record for Kd
Entry under review: WFLISFW (HELM PEPTIDE1{[meW].F.L.I.S.F.W.[am]}$$$$V2.0; SMILES CC[C@H](C)[C@H](NC(=O)[C@H](CC(C)C)NC(=O)[C@H](Cc1ccccc1)NC(=O)[C@H](Cc1c[nH]c2ccccc12)NC)C(=O)N[C@@H](CO)C(=O)N[C@@H](Cc1ccccc1)C(=O)N[C@@H](Cc1c[nH]c2ccccc12)C(N)=O) [SEQ ID NO: 102] . Reported Kd? ≤ 400 nM
